Entry source: patent US11230683B2

Biological target: human erythrocyte AChE (hAChE) (Homo sapiens, UniProt P22303)
Construct: The human erythrocyte AChE (hAChE, aqueous buffer solution); purchased Sigma Aldrich; host or cells: human erythrocytes
Sequence (P22303 32-617 isoform P22303-2 limits assumed): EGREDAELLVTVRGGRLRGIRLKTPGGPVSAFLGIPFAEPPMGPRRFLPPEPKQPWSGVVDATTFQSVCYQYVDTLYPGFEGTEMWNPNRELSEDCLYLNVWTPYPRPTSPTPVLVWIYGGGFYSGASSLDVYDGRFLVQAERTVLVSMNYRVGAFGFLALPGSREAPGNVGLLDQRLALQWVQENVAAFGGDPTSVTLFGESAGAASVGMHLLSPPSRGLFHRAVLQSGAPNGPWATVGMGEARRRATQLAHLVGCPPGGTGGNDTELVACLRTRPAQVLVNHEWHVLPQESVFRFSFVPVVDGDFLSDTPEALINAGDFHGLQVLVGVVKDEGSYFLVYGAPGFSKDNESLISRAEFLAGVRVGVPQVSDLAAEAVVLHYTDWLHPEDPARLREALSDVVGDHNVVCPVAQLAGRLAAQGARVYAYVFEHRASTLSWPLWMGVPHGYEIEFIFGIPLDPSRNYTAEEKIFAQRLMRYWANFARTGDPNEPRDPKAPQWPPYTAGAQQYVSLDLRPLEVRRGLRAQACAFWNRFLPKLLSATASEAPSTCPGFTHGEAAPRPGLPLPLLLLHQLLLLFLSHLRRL
Assay: biochemical
Type: biochemical
Conditions: IC50 hAChE
Can you tell me IC50 for the items I'm about to list?
Answers are plain numbers, in µM.

>  <compound>
CCCCC(CC)COP(=O)(Oc1ccccc1)Oc1ccccc1 (stereo not shown) [Compound A, 2-ethylhexyl diphenylphosphate]

>  <IC50 (µM)>
35

$$$$
>  <compound>
Cc1cccc(OP(=O)(Oc2cccc(C)c2)Oc2cccc(C)c2)c1 [Compound C, Tri(meta-cresyl)phosphate]

>  <IC50 (µM)>
25.2

$$$$
>  <compound>
O=P(Oc1ccccc1)(Oc1ccccc1)Oc1ccc(Sc2ccc(OP(=O)(Oc3ccccc3)Oc3ccccc3)cc2)cc1 [Compound 3]

>  <IC50 (µM)>
34

$$$$
>  <compound>
CC(C)(C)c1ccc(OP(=O)(Oc2ccccc2)Oc2ccc(C(C)(C)C)cc2)cc1 [Compound H, di(p-tertbutylphenyl)phenylphosphate]

>  <IC50 (µM)>
27.6

$$$$

Give me IC50 for each of these compounds, listed below.
1. O=P(Oc1c(F)cccc1F)(Oc1c(F)cccc1F)Oc1c(F)cccc1F [Compound F, Tri(2,6-difluorophenyl)phosphate]
2. O=P(OCCCl)(OCCCl)OCCCl [Compound N, tris(chloroethyl)phosphate]
3. O=P(Oc1ccccc1)(Oc1ccccc1)Oc1ccc(OP(=O)(Oc2ccccc2)Oc2ccccc2)cc1 [Compound 1, Hydroquinone bis(diphenylphosphate)]
4. CC(C)(C)c1ccc(OP(=O)(Oc2ccc(C(C)(C)C)cc2)Oc2ccc(C(C)(C)C)cc2)cc1 [Compound I, Tri(p-tert-butylphenyl)phosphate]
5. Cc1ccc(OP(=O)(Oc2ccc(C)cc2)Oc2ccc(C)cc2)cc1 [Compound D, Tri(para-cresyl)phosphate]
6. CCC(COP(=O)(Oc1ccccc1)Oc1ccccc1)(COP(=O)(Oc1ccccc1)Oc1ccccc1)COP(=O)(Oc1ccccc1)Oc1ccccc1 [Compound 7]
7. CCCCC(CC)(COP(=O)(Oc1ccccc1)Oc1ccccc1)COP(=O)(Oc1ccccc1)Oc1ccccc1 [Compound 6]
8. Cc1ccccc1OP(=O)(Oc1ccccc1C)Oc1ccccc1C [Compound B, Tri(ortho-cresyl)phosphate]

[A]
12.9
28.7
42
17
26.3
22
26.3
40.7

[Q] Fill in: IC50 of O=P(Oc1ccccc1)(Oc1ccccc1)Oc1ccc(Oc2ccc(OP(=O)(Oc3ccccc3)Oc3ccccc3)cc2)cc1 [Compound 4] is ___
[A] 33.9

====

Target: human erythrocyte AChE (hAChE) (Homo sapiens, UniProt P22303)
Construct: The human erythrocyte AChE (hAChE, aqueous buffer solution); purchased Sigma Aldrich; host or cells: human erythrocytes
Experiment: biochemical
Type: biochemical
quantity: pIC50
Answers are plain numbers, as −log10 of the molar value.

[Q] Bench note: what pIC50 did NP(=O)(Oc1ccccc1)Oc1ccccc1 [Compound K, Diphenyl phosphoroamidate] show?
[A] 4.42

====

Biological target: BuChE from equine serum (eqBuChE) (Equus caballus, UniProt P81908)
Construct: The BuChE freeze-dried from equine serum (eqBuChE, Sigma Aldrich); purchased Sigma Aldrich; host or cells: equine serum
Sequence (P81908 whole entry): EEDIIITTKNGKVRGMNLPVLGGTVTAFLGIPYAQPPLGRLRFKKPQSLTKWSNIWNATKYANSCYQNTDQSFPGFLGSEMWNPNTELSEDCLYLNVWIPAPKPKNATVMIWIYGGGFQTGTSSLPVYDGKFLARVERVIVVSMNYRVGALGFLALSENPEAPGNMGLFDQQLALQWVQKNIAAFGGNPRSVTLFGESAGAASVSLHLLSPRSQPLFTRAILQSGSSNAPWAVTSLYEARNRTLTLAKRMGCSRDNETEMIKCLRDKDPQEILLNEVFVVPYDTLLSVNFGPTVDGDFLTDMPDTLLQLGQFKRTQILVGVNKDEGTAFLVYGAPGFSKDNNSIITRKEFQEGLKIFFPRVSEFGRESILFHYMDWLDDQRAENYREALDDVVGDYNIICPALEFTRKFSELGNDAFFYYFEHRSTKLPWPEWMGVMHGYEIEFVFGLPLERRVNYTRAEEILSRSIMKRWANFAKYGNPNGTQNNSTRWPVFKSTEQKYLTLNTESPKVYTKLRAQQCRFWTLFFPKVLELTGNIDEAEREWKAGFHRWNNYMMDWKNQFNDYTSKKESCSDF
Assay: biochemical
Assay type: biochemical
Conditions: IC50 eqBuChE
quantity: log10 of IC50 (log10 of the value in µM)
Kindly note that the scale is log10 and the underlying IC50 is in µM.

>  <compound>
Cc1cccc(OP(=O)(Oc2cccc(C)c2)Oc2cccc(C)c2)c1 [Compound C, Tri(meta-cresyl)phosphate]

>  <quantity>
log10 of IC50

>  <assay-result>
0.80

$$$$
>  <compound>
Cc1ccccc1OP(=O)(Oc1ccccc1C)Oc1ccccc1C [Compound B, Tri(ortho-cresyl)phosphate]

>  <quantity>
log10 of IC50

>  <assay-result>
1.00

$$$$

For each entry beneath this line, provide reported log10 of IC50.
1. O=P(Oc1ccccc1)(Oc1ccccc1)Oc1ccc(Sc2ccc(OP(=O)(Oc3ccccc3)Oc3ccccc3)cc2)cc1
2. CC(C)(C)c1ccc(OP(=O)(Oc2ccccc2)Oc2ccc(C(C)(C)C)cc2)cc1 [Compound H, di(p-tertbutylphenyl)phenylphosphate]
3. O=P(Oc1ccccc1)(Oc1ccccc1)Oc1cc(OP(=O)(Oc2ccccc2)Oc2ccccc2)cc(OP(=O)(Oc2ccccc2)Oc2ccccc2)c1
4. O=P(OCCCl)(OCCCl)OCCCl [Compound N, tris(chloroethyl)phosphate]

[A]
[2.22, 2.45, 2.00, 2.50]

# per-item lookup of log10 of IC50; items listed below
1. CCCCC(CC)(COP(=O)(Oc1ccccc1)Oc1ccccc1)COP(=O)(Oc1ccccc1)Oc1ccccc1
2. O=P(Oc1ccccc1)(Oc1ccccc1)Oc1ccc(Oc2ccc(OP(=O)(Oc3ccccc3)Oc3ccccc3)cc2)cc1
3. Cc1ccc(OP(=O)(Oc2ccc(C)cc2)Oc2ccc(C)cc2)cc1 [Compound D, Tri(para-cresyl)phosphate]
4. CC(C)(C)c1ccc(OP(=O)(Oc2ccc(C(C)(C)C)cc2)Oc2ccc(C(C)(C)C)cc2)cc1 [Compound I, Tri(p-tert-butylphenyl)phosphate]
5. O=P(Oc1c(F)cccc1F)(Oc1c(F)cccc1F)Oc1c(F)cccc1F [Compound F, Tri(2,6-difluorophenyl)phosphate]
6. O=P(Oc1ccccc1)(Oc1ccccc1)Oc1ccc(OP(=O)(Oc2ccccc2)Oc2ccccc2)cc1 [Compound 1, Hydroquinone bis(diphenylphosphate)]

[A]
1: 1.97; 2: 2.07; 3: 2.06; 4: 2.29; 5: 1.30; 6: 2.27

Hey, quick one: what's log10 of IC50 for each of these?
1. CCC(COP(=O)(Oc1ccccc1)Oc1ccccc1)(COP(=O)(Oc1ccccc1)Oc1ccccc1)COP(=O)(Oc1ccccc1)Oc1ccccc1
2. CCCCC(CC)COP(=O)(Oc1ccccc1)Oc1ccccc1 (centres unmarked) [Compound A, 2-ethylhexyl diphenylphosphate]

[A]
[2.16, 0.29]

====

Target: BuChE from equine serum (eqBuChE) (Equus caballus, UniProt P81908)
Construct: The BuChE freeze-dried from equine serum (eqBuChE, Sigma Aldrich); purchased Sigma Aldrich; host or cells: equine serum
Assay: biochemical
Assay type: biochemical
quantity: pIC50
One number for each entry, as −log10 of the molar value.

[Q] // pIC50 lookup, key: NP(=O)(Oc1ccccc1)Oc1ccccc1 [Compound K, Diphenyl phosphoroamidate]
[A] 3.87
